# Study target: human ferroportin (Homo sapiens)
# Construct: luciferase reporter (read with the Nano-Glo Luciferase Assay System); expressed in transfected cells; host or cells: CHO cells, stably transfected, expression induced with doxycycline
# Sequence (Q9NP59 1-571): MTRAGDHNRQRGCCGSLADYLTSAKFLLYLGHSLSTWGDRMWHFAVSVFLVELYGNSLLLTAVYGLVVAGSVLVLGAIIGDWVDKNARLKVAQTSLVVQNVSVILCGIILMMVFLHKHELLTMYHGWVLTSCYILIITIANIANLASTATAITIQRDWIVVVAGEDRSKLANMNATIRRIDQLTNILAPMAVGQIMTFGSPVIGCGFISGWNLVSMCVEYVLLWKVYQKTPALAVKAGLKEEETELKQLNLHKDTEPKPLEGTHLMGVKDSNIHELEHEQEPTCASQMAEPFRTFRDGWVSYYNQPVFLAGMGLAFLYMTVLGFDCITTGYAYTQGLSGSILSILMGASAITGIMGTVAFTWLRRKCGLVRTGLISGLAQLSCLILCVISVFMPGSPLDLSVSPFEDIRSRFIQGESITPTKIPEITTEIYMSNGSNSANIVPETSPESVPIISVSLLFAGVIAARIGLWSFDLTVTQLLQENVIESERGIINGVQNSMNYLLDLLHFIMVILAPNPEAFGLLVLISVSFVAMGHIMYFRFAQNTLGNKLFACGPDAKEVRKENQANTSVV
# Measurement protocol: Biological in-vitro ferroportin internalization assay (luciferase reporter)
# Assay type: cell-based
# Condition parameters: average pEC50; stably-transfected CHO cell line expressing human ferroportin tagged to a luciferase reporter; 6 h incubation with test compound
Experimental endpoint: pEC50
Answers are plain numbers.

Check out these entries, answers already filled in.
CN(CC(=O)NCc1ccccc1)c1nc(-c2ccccn2)nc2c1CCC2 = 6.8
COc1ccnc(-c2nc3c(c(N(C)[C@H](C)C(=O)NC4CCCCC4)n2)CCC3)c1 = 7.7
COc1ccnc(-c2nc3c(c(N(C)CC(=O)Nc4cnc(OC)nc4)n2)CCC3)c1 = 7.6
CN(C)CCOc1ccnc(-c2nc(N(C)CC(=O)NC(C)(C)C)c3c(n2)C(C)(C)CC3)c1 = 6.3
CC(C)NC(=O)CN(C)c1nc(-c2cc(OCCN3CCCC3)ccn2)nc2c1CCC2 = 8

Provide reported pEC50 for each item, in the same order as listed.
1. CN(CC(=O)NCc1ccccn1)c1nc(-c2ccccn2)nc2c1CCC2
2. CN(CC(=O)NC(C)(C)C)c1nc(-c2cc(OCCN3CC[C@H](F)C3)ccn2)nc2c1CCC2
3. CN1CCC[C@@H](Oc2ccnc(-c3nc4c(c(N(C)CC(=O)NC(C)(C)C)n3)CCC4)c2)C1
4. COc1ccc(NC(=O)CN(C)c2nc(-c3cc4ncccc4cn3)nc3c2CCC3)cn1
5. CN(CC(=O)N[C@@H]1CCC[C@@H]1O)c1nc(-c2cc(OCC(C)(C)O)ccn2)nc2c1CCC2
6. COc1ccnc(-c2nc3c(c(N(C)CC(=O)NC(C)(C)C)n2)CCC3)c1
7. Cc1ccc(NC(=O)CN(C)c2nc(-c3cc4cn[nH]c4cn3)nc3c2CCC3)cn1

Reply:
[6.6, 8.3, 8.2, 7, 7.6, 7.9, 7.1]

Provide reported pEC50 for each item, in the same order as listed.
1. CN(CC(=O)NC1(C)CCOC1)c1nc(-c2cn(C)cn2)nc2c1CCC2 (stereo not shown)
2. c1ccc(-c2nc3c(c(N4CCCO[C@H]5CCC[C@@H]54)n2)CCC3)nc1

Reply:
6.7
7.1

Provide reported pEC50 for each item, in the same order as listed.
1. CN(CC(=O)NC(C)(C)C)c1nc(-c2cc(OCC3COC3)ccn2)nc2c1CCC2
2. COc1ccc2cnc(-c3nc4c(c(N(C)CC(=O)NC(C)(C)C)n3)CCC4)cc2c1

Reply:
[7.9, 7.6]
